# Test system: SW-620 colon
# measurementDescription: NCI tumour cell line growth inhibition, 48 h
parameter: TGI (µM)
Report the figure in µM without appending any unit label.

CCN(CC)CCCNc1ccc(C)c2sc3ccccc3c(=O)c12 :: 1.51
O=c1c2ccccc2sc2c(CO)ccc(NCCN3CCCCC3)c12 :: 11.2
N#CC1c2ccccc2C=CN1C(=O)CCCl (centres undefined) :: 6.53

Turning now to a further compound:
# return recorded TGI for entry COC(=O)/C=C(/C=C1/C(C#N)=C(N)N(c2ccc(Cl)cc2)C1(C)/C(=C\C(=O)OC)C(=O)OC)C(=O)OC (centres undefined)
30.8

---

# Tested on: SW-620 colon
# measurementDescription: NCI tumour cell line growth inhibition, 48 h; in the data active means GI50 below about 0.43 µM; inactive means the rest
Select the correct class. Options are active, inactive and nothing else.

O=C1NC(=N[C@@H](CO)c2ccccc2)S/C1=C\c1ccc2ncccc2c1 :: inactive
OC1(c2ccc(Cl)c(C(F)(F)F)c2)CCN(CCCC(c2ccc(F)cc2)c2ccc(F)cc2)CC1 :: inactive
O=C1C=C[C@H](O)[C@@]2(CO)O[C@@H]12 :: inactive
Cc1c(C(=N)C(C#N)C#N)c(=N)oc2c1ccc1ccccc12 :: inactive
FC(F)(F)Oc1cccc(-c2cc(NCCCCCCNc3cc(-c4cccc(OC(F)(F)F)c4)nc4ccc(N5CCCC5)cc34)c3cc(N4CCCC4)ccc3n2)c1 :: inactive
CCCCCCCCCCCC[N+]1(CCCCCCCCCCCC)CCCC(C)C1 (stereo not given) :: active

I'd appreciate the recorded outcome for COc1cc(CNc2nc3cc(N)cc(N)c3nc2-c2ccccc2)cc(OC)c1 from this test.
inactive

I'd appreciate the recorded outcome for O=C(/C=C/C12c3ccccc3C(c3ccccc31)C1C(=O)NC(=O)C12)c1ccccn1 (stereo not given) from this test.
inactive

I'd appreciate the recorded outcome for N#CC1(c2ccc(NC(=O)c3cccnc3NCc3ccncc3)cc2)CCCC1 from this test.
inactive

I'd appreciate the recorded outcome for CCN(CC)CCCNc1ccc(C)c2sc3ccccc3c(=O)c12 from this test.
active
